These measurements were taken from patent US20230159510A1.

System: HCT116 WT cells
procedureDetails: HCT116 proliferation assay, WT cells (CellTiter-Glo, 6 days)
Format: cell-based
experimentalSetup: Homo sapiens, HCT-116, 144 h, read-out: Prolif_HCT116-WT IC50
measurementLabel: IC50 (µM)

>  <compound>
Cc1cc2cc(C(=O)N(Cc3ccc(C(F)(F)F)cc3)Cc3ncccc3F)ccc2nc1N

>  <IC50 / µM>
4.64

$$$$

A: CC[C@H](c1ncccn1)N(Cc1cnc(C(F)(F)F)cn1)C(=O)c1ccc2nc(N)c(C)cc2c1 (single isomer, unassigned)
B: Cc1cc2cc(C(=O)N(Cc3ccccc3F)Cc3c[nH]c4cccnc34)ccc2nc1N
C: Cc1cc2cc(C(=O)N(Cc3ccc(C4=CCOCC4)cn3)[C@H](C)c3ncccn3)ccc2nc1N
Q) Put the compounds in ascending order of IC50. Labels, requested order.
A) C, A, B
(C: 1.73 µM, A: 3.64 µM, B: 9.78 µM)

====

Test system: HCT116 MTAP null cells
procedureDetails: HCT116 proliferation assay, MTAP null cells (CellTiter-Glo, 6 days)
Assay type: cell-based
experimentalSetup: HCT116-MTAP null, 144 h, read-out: Protif_ HCT116-MTAP null IC50
measurementLabel: IC50 (nM)

Worked cases, IC50 given:
>  <compound>
CO[C@@H]1COCC[C@H]1N(Cc1ccc(C(F)(F)F)cn1)C(=O)c1ccc2nc(N)c(Br)cc2c1 [Example 829]

>  <IC50 (nM)>
840

$$$$
>  <compound>
CC(=O)N1CCC(c2ccc(CN(C(=O)c3ccc4nc(N)c(C)cc4c3)[C@H](C)c3ncccn3)nc2)CC1 [Example 552]

>  <IC50 (nM)>
220

$$$$
>  <compound>
Cc1cc2cc(C(=O)N(Cc3ccc(C(F)(F)F)cn3)[C@@H]3CCCc4ccncc43)ccc2nc1N [Example 323]

>  <IC50 (nM)>
159

$$$$
>  <compound>
C[C@H](c1ncccn1)N(Cc1ccc(C(F)(F)F)cn1)C(=O)c1cc2cc(Br)c(N)nc2cn1 [Example 419]

>  <IC50 (nM)>
271

$$$$
>  <compound>
COC(=O)N1CC=C(c2ccc(CN(C(=O)c3ccc4nc(N)c(C)cc4c3)[C@H](C)c3ncccn3)nc2)CC1 [Example 551]

>  <IC50 (nM)>
21

$$$$

I: C[C@H](c1ncccn1)N(Cc1cc2c(cn1)OCCC2)C(=O)c1ccc2nc(N)c(Br)cc2c1 [Example 777]
II: N#CC[C@@H](C1CC1)N(Cc1ccc(C#N)cn1)C(=O)c1ccc2nc(N)c(I)cc2c1 [Example 837]
III: C[C@H](c1ncccn1)N(Cc1ccc(C#N)cn1)C(=O)c1ccc2nc(N)c(Cl)cc2c1 [Example 408]
IV: Cc1cc2cc(C(=O)N(Cc3ccc(Br)nn3)[C@H](C)c3nccs3)ccc2nc1N [Example 514]
Q) Put the compounds in ascending order of IC50. Labels, requested order.
A) IV, II, I, III

A: Cc1cc2cc(C(=O)N(Cc3ccc(C(F)(F)F)cn3)[C@@H]3CCOC[C@H]3O)ccc2nc1N (mixture of isomers) [Example 803]
B: Cc1cc2cc(C(=O)N(Cc3ccc(C(F)(F)F)cn3)[C@H](C)C3CC3)ccc2nc1N [Example 309]
C: Cc1cc2cc(C(=O)N(Cc3ccc4ccoc4c3)Cc3ccc(C(F)(F)F)cn3)ccc2nc1N [Example 622]
Q) Put the compounds in ascending order of IC50. Labels, requested order.
A) C, A, B

I: Cc1cc2cc(C(=O)N(Cc3ccc(C(F)(F)F)nn3)[C@H](C)c3cscn3)ccc2nc1N (single isomer, unassigned) [Example 533]
II: Cc1cc2cc(C(=O)N(Cc3ncc(C#N)cc3C)[C@H](C)c3ncccn3)ccc2nc1N [Example 549]
Q) Consider I and II . Which of these has its IC50 at a higher number? Lab note: record the label of whichever item you select.
A) II

====

System: HCT116 MTAP null cells
procedureDetails: HCT116 proliferation assay, MTAP null cells (CellTiter-Glo, 6 days)
Format: cell-based
experimentalSetup: HCT116-MTAP null, 144 h, read-out: Protif_ HCT116-MTAP null IC50
measurementLabel: IC50 (nM)

P: Cc1cc2cc(C(=O)N(CCC3CCC3)Cc3ccc(C(F)(F)F)cn3)ccc2nc1N
Q: Cc1cc2cc(C(=O)N(Cc3ccc4[nH]c(=O)[nH]c4c3)Cc3ccc(C(F)(F)F)cn3)ccc2nc1N
R: Cc1cc2cc(C(=O)N(Cc3ccc(C(F)(F)F)cn3)[C@H](C)c3ncccc3F)cnc2nc1N
Q) // ranking: key=IC50, reverse=True Labels, requested order.
A) P, Q, R
(P: 770 nM, Q: 343 nM, R: 198 nM)

====

System: HCT116 MTAP null cells
procedureDetails: HCT116 proliferation assay, MTAP null cells (CellTiter-Glo, 6 days)
Assay type: cell-based
experimentalSetup: HCT116-MTAP null, 144 h, read-out: Protif_ HCT116-MTAP null IC50
measurementLabel: IC50 (nM)

>  <compound>
Cc1cc2cc(C(=O)N(Cc3ccccc3F)C3CC(c4ccc(OC(F)(F)F)cc4)C3)ccc2nc1N (stereo not drawn)

>  <unitsOfMeasure>
nM

>  <IC50>
807

$$$$
>  <compound>
Cc1cc2cc(C(=O)N(Cc3ccc(C(F)(F)F)cn3)C3CCCc4ncccc43)ccc2nc1N (stereo not drawn)

>  <unitsOfMeasure>
nM

>  <IC50>
24

$$$$
>  <compound>
Cc1cc2cc(C(=O)N(Cc3ccc(C(F)(F)F)cn3)[C@@H]3CCOC[C@H]3F)ccc2nc1N (single isomer, unassigned)

>  <unitsOfMeasure>
nM

>  <IC50>
260

$$$$

1: COC[C@@H](C)N(Cc1ccc(C(F)(F)F)cn1)C(=O)c1ccc2nc(N)c(C)cc2c1C
2: C[C@H](c1ncccn1)N(Cc1ccc(C2CC2)nn1)C(=O)c1ccc2nc(N)c(Br)cc2c1
Q) Consider 1 and 2 . Which of these has its IC50 at a higher number? Lab note: record the label of whichever item you select.
A) 1
(1: 270 nM, 2: 180 nM)

P: Cc1cc2cc(C(=O)N(Cc3ccc(S(=O)(=O)C4CC4)cn3)[C@H](C)c3ncccc3F)ccc2nc1N
Q: Cc1cc2cc(C(=O)N(Cc3cnc(C(F)(F)F)cn3)[C@H](C)c3ccc(F)cn3)ccc2nc1N (single isomer, unassigned)
R: Cc1cc2cc(C(=O)N(Cc3ccc(C(F)(F)F)cn3)Cc3c(C)c4ccccc4n3C)ccc2nc1N
Q) Arrange the 3 compounds from largest to smallest IC50. Labels, requested order.
A) R, Q, P
(R: 859 nM, Q: 515 nM, P: 194 nM)

A: Cc1cc2cc(C(=O)N(Cc3ccc(C(F)(F)F)cn3)Cc3cnc(N)s3)ccc2nc1N
B: Cc1cc2cc(C(=O)N(Cc3ncccc3Br)CC(C)C)ccc2nc1N
Q) # return whichever of A and B has the smaller IC50 Lab note: record the label of whichever item you select.
A) A
(A: 268 nM, B: 730 nM)

====

System: HCT116 MTAP null cells
procedureDetails: HCT116 proliferation assay, MTAP null cells (CellTiter-Glo, 6 days)
Format: cell-based
experimentalSetup: HCT116-MTAP null, 144 h, read-out: Protif_ HCT116-MTAP null IC50
measurementLabel: IC50 (nM)

I: Cc1cc2cc(C(=O)N(Cc3ccc(C(F)(F)F)cn3)CC(F)(F)F)ccc2nc1N [Example 442]
II: Cc1c(N)nc2ccc(C(=O)N(Cc3ccc(C#N)cn3)[C@H](C)c3ncccn3)cc2c1C [Example 545]
III: N#CC[C@@H](C1CC1)N(Cc1ccc(C(F)(F)F)cn1)C(=O)c1ccc2nc(N)c(Br)cc2c1 [Example 778]
IV: N#Cc1ccc(CN(C(=O)c2cnc3nc(N)c(Br)cc3c2)[C@@H](c2ncccn2)C2CC2)nc1 [Example 425]
Q) Sort the list above on IC50 in ascending fashion. Labels, requested order.
A) II, III, IV, I

P: COc1ccc(CN(C(=O)c2ccc3nc(N)c(Cl)cc3c2)[C@H](C)c2ncccn2)nn1 [Example 413]
Q: Cc1cc2cc(C(=O)N(Cc3ccc(C(F)(F)F)cn3)[C@@H]3CCCC(F)(F)[C@@H]3O)ccc2nc1N (single isomer, unassigned) [Example 466]
R: Cc1cc2cc(C(=O)N(Cc3ccc(C(F)(F)F)cn3)CC3CCC(O)C3)ccc2nc1N (centres unmarked) [Example 677]
S: Cc1cc2cc(C(=O)N(Cc3ccc(C(F)(F)F)cn3)Cc3ncccc3C)ccc2nc1N [Example 343]
T: Cc1cc2cc(C(=O)N(Cc3ccc(C(F)(F)F)cn3)[C@@H](c3ncccn3)C3CC3)ccc2nc1N (single isomer, unassigned) [Example 452]
Q) Arrange the 5 compounds from largest to smallest IC50. Labels, requested order.
A) R, P, Q, S, T

I: Cc1cc2cc(C(=O)N(Cc3ccc(C(F)(F)F)cn3)C3CCCc4occc43)ccc2nc1N (centres unmarked) [Example 606]
II: Cc1cc2cc(C(=O)N(Cc3ccc(C#N)cn3)CC3CC3)c(F)cc2nc1N [Example 307]
Q) Consider I and II . Which of these has its IC50 at a higher number? Lab note: record the label of whichever item you select.
A) II
(II: 349 nM, I: 27 nM)
